From: ChEMBL document CHEMBL5136992

target: Histone-lysine N-methyltransferase EZH2 (Homo sapiens); test: Inhibition of wild type EZH2 (unknown origin)
Sequence (Q15910 whole entry): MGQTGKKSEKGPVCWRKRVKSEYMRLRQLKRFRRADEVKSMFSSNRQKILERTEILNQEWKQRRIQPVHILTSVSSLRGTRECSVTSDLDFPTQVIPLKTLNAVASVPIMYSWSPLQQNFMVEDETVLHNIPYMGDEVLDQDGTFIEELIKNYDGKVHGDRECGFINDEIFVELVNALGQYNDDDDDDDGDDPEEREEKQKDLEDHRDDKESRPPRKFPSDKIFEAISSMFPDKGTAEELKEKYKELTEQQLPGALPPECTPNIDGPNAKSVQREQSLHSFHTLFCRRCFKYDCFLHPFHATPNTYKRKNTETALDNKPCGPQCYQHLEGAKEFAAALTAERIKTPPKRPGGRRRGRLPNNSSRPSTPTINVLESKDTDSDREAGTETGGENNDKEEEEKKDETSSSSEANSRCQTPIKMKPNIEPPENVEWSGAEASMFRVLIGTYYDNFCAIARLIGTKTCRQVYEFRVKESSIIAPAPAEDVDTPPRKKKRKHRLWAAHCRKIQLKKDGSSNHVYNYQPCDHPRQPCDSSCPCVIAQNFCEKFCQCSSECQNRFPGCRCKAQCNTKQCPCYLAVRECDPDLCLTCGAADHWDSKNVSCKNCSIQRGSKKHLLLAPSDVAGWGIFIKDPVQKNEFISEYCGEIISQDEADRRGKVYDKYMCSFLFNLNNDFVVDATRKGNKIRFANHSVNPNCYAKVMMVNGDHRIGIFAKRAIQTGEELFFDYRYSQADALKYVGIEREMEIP
Metric Name: pIC50
Give only the number. pIC50 is defined as minus log10 of concentration in molar units.

Data request: Which pIC50 value belongs to `CCC(CC)n1ncc2c(C(=O)NCc3c(C)cc(C)[nH]c3=O)cc(C#N)cc21` ?
Data returned: 7.82

---

target: UniProtKB Q15910; assay: Inhibition of EZH2 (unknown origin)
Metric Name: pIC50
Give only the number. pIC50 is defined as minus log10 of concentration in molar units.

Data request: Which pIC50 value belongs to `CCC(CC)n1ncc2c(C(=O)NCc3c(C)cc(C)[nH]c3=O)cc(C3CC3)nc21` ?
Data returned: 6.83

Data request: Which pIC50 value belongs to `Cc1coc2c1C(=O)C(=O)c1c-2ccc2c1CC[C@@H](O)[C@]2(C)O` ?
Data returned: 6.26

---

Biological target: Histone-lysine N-methyltransferase SETD7 (Homo sapiens, UniProt Q8WTS6)
Sequence (Q8WTS6 whole entry): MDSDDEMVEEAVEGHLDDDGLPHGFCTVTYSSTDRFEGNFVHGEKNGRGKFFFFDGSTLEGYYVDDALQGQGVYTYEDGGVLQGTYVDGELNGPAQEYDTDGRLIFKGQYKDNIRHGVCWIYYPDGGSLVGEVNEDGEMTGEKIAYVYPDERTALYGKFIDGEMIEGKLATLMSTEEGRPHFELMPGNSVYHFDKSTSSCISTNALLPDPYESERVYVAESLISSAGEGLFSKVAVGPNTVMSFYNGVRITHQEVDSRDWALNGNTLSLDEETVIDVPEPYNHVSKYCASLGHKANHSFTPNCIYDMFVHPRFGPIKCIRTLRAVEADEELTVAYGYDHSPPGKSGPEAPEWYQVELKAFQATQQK
pIC50: −log10 of the molar value.
Metric Name: pIC50

Data request: Which pIC50 value belongs to `CCCCCCNCCN(CC[C@H](N)C(=O)O)C[C@@H]1O[C@H](n2cnc3c(N)ncnc32)[C@@H](O)[C@H]1O` ?
Data returned: < 5.00

---

Target: Histone-lysine N-methyltransferase EHMT2 (Homo sapiens)
Sequence (Q96KQ7 whole entry): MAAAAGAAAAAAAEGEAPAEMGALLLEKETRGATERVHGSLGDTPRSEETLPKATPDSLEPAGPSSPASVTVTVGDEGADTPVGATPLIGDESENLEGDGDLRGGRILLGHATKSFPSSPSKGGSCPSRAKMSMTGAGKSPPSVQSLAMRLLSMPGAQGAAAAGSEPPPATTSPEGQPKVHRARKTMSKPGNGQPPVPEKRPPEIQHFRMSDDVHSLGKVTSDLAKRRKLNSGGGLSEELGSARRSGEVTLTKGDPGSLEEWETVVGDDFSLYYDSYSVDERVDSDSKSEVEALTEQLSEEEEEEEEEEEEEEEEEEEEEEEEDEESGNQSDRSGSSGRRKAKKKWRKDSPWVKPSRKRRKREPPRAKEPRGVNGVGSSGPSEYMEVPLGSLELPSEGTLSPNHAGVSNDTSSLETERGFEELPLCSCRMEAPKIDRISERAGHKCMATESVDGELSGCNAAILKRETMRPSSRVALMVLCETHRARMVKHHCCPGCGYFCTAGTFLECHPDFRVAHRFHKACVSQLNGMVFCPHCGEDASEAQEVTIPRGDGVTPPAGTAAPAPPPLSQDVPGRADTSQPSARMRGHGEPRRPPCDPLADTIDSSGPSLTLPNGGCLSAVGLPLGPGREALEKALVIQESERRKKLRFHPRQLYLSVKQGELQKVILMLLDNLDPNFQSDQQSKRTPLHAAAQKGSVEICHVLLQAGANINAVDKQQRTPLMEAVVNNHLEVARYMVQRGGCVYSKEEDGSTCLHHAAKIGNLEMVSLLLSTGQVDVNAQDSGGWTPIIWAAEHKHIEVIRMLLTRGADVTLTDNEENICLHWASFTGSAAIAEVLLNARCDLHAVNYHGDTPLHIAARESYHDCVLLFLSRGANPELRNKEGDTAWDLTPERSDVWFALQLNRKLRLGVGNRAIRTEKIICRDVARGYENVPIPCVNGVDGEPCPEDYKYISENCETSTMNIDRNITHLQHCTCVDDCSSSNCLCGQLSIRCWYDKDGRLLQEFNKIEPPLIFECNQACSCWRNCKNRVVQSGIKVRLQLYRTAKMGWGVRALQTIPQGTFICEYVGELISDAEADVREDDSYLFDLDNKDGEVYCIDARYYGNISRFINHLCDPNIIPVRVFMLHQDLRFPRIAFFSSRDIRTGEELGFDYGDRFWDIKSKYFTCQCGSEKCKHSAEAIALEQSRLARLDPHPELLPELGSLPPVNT
Metric Name: IC50 (nM)
Please reply with the bare figure in nM and do not write the unit itself.

Data request: Query for Histone-lysine N-methyltransferase EHMT2 (Homo sapiens): what IC50 does the record show for `Nc1ncnc2c1ncn2[C@H]1O[C@@H](CN(CCI)CCC[C@H](N)C(=O)O)[C@H](O)[C@@H]1O` ?
Data returned: 1800

---

The next entries give measured IC50 for Protein arginine N-methyltransferase 5 (Homo sapiens).
Please reply with the bare figure in µM and do not write the unit itself.

# Smiles Data, Value Measured
rows = [
    ("CCNC(=O)NCCCSC[C@@H]1O[C@H](n2cnc3c(N)ncnc32)[C@@H](O)[C@H]1O", 6),
]

// below: IC50 requested for another compound
Data request: Which IC50 value belongs to `Nc1ncnc2c1ccn2[C@H]1O[C@@H]([C@H](O)c2ccccc2)[C@H](O)[C@@H]1O` ?
Data returned: 0.0095

---

assay: Aqueous solubility of the compound; format: physicochemical; details: buffer
Recorded solubility values for a group of compounds are listed next.
A complete answer gives the number followed by the unit.

# Smiles Data, Value Measured
records = [
    ("CO[C@@H](c1cc(Cl)c2c(c1Cl)C(=O)N(Cc1c(C)cc(C)[nH]c1=O)CC2)C1COC1", "315 µg/mL"),
]

// below: solubility requested for another compound
Data request: Which solubility value belongs to `Cc1cc(C)c(CN2CCc3c(Cl)cc(-c4c(C)noc4C)c(Cl)c3C2=O)c(=O)[nH]1` ?
Data returned: 2 µg/mL

---

molecular target: Histone-lysine N-methyltransferase, H3 lysine-79 specific (Homo sapiens); assay: Inhibition of DOT1L (unknown origin)
Sequence (Q8TEK3 whole entry): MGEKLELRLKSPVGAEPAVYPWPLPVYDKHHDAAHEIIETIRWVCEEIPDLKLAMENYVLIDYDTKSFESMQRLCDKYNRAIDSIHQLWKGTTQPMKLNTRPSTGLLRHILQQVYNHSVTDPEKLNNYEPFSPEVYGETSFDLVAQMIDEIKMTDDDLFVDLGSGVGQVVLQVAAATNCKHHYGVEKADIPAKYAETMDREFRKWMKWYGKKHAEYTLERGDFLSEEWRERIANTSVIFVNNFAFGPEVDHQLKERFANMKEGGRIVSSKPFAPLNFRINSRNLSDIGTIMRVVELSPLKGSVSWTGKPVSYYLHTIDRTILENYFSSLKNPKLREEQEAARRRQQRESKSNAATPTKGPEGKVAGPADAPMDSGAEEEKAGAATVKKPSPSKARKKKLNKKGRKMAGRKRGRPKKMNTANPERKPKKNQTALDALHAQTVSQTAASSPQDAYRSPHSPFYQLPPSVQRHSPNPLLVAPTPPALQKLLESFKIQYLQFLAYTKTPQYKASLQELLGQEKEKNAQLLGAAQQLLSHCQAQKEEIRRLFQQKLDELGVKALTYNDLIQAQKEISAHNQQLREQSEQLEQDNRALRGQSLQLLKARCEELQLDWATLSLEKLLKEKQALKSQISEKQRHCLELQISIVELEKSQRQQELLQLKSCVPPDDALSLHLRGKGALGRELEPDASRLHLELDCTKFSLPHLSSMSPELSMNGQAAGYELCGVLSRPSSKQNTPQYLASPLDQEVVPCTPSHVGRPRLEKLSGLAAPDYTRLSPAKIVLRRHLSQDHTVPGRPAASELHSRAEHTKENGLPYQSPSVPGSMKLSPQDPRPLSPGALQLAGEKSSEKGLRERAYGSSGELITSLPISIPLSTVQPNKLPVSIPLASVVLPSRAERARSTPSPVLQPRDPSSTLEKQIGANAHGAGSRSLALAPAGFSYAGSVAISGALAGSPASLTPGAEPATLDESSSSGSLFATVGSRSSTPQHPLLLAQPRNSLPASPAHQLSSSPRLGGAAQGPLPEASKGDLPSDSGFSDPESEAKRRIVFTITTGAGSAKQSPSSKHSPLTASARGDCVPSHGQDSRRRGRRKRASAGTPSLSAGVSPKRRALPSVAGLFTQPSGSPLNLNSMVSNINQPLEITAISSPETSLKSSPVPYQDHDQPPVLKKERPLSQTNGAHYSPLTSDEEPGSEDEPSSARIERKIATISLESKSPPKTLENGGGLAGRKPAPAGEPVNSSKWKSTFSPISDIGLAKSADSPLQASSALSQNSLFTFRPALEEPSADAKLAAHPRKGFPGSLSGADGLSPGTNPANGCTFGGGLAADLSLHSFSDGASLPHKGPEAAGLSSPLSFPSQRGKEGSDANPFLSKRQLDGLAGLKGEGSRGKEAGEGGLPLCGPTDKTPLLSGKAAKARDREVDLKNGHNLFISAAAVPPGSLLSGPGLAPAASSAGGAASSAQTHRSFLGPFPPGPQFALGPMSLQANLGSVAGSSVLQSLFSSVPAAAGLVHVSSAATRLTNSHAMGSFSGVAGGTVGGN
# note: exactly 9 µM is not below, so it is criterion not met; use criterion met for IC50 strictly under it

# Compound, Target Of Assay, Group Label
measured = [
    ("CN(CCCNC(=O)CNC(=O)Nc1ccc2sc(Cl)c(-c3cccnc3)c2c1)[C@@H]1CCCC(c2ncnc3[nH]ccc23)C1 (stereo partly specified)", "Histone-lysine N-methyltransferase, H3 lysine-79 specific (Homo sapiens)", "criterion met"),
]

Data request: Answer whether the compound Nc1ncnc2ccc(N(CC#CC(O)c3nccn3CCO)c3c(Cl)cccc3Cl)cc12 (stereo unspecified) has IC50 strictly less than 9 µM
Data returned: criterion not met

Data request: Answer whether the compound `Nc1ncnc2c1ncn2[C@H]1O[C@@H](C[C@H](N)CC[C@H](N)C(=O)O)[C@H](O)[C@@H]1O` has IC50 strictly less than 9 µM
Data returned: criterion not met

Data request: Answer whether the compound `CC(C)(C)c1ccc(CC(=O)c2ncn(CC(=O)NCCn3ccc4c(N)ncnc43)n2)cc1` has IC50 strictly less than 9 µM
Data returned: criterion met

Data request: Answer whether the compound `CNc1ccnc(Nc2ccc3sc(Cl)c(-c4cc(-c5c(C)ncn(C)c5=O)cnc4Cl)c3c2)n1` has IC50 strictly less than 9 µM
Data returned: criterion met
